- test: qHTS assay to identify small molecule antagonists of the estrogen receptor alpha (ER-alpha) signaling pathway using the BG1 cell line in the presence of 0.1 nM 17-beta-estradiol - cell viability counter screen (AID 1259241); note: nearly all actives have a fitted effect of over 40% in size; note: potency is the fitted concentration of half-maximal effect
- recorded_conditions: VM7Luc4E2 (BG1) viability, CellTiter-Fluor protease, 22 h, 0.1 nM estradiol agonist added; series mostly up to 92.4 µM
- From the text: National Center for Advancing Translational Sciences [NCATS] NIH Chemical Genomics Center [NCGC] U.S. Environmental Protection Agency [EPA] National Institutes of Environmental Health Sciences [NIEHS] National Toxicology Program [NTP] U.S. Food and Drug Administration [FDA] Estrogen receptor (ER), a member of the nuclear hormone receptor plays an important role in development, metabolic homeostasis and reproduction. […]
Inconclusive results are not listed. Calls of active or inactive are those of the source. Calls come from the whole dose curve; as a rule, active = well fitted cell-killing curve with a large enough effect in the repeat runs; inconclusive = weak or mixed curves, or effect the other way; inactive = flat fitted curve, though single readings scatter.
assay_readout: Potency

INSERT INTO results (structure_notation, assay_readout, reported_result) VALUES
  ('OC1(c2ccc(Cl)c(C(F)(F)F)c2)CCN(CCCC(c2ccc(F)cc2)c2ccc(F)cc2)CC1', 'Potency', '33.5 µM (active)'),
  ('CC(=O)SC[C@@H](Cc1ccccc1)C(=O)NCC(=O)OCc1ccccc1', 'Potency', 'inactive'),
  ('c1ccc(CSCc2ccccc2)cc1', 'Potency', 'inactive'),
  ('O=C(N/N=C/c1ccccc1O)c1ccncc1', 'Potency', 'inactive'),
  ('Oc1ccc2cc(SSc3ccc4cc(O)ccc4c3)ccc2c1', 'Potency', 'inactive'),
  ('O=C(NO)C1(NS(=O)(=O)c2ccc(Oc3ccc(F)cc3)cc2)CCOCC1', 'Potency', 'inactive'),
  ('CCCCCCCCn1sc(Cl)c(Cl)c1=O', 'Potency', 'inactive'),
  ('Cc1cccc2c1cc1ccc3cccc4ccc2c1c34', 'Potency', 'inactive'),
  ('C[C@H]1[C@H]2CC[C@H]3[C@@H]4CC=C5C[C@@H](N(C)C)CC[C@]5(C)[C@H]4CC[C@]23CN1C', 'Potency', 'inactive'),
  ('C[n+]1cc2c3c(ccc2c2ccc4cc5c(cc4c21)OCO5)OCO3', 'Potency', '13 µM (active)'),
  ('CC(C)CCCCCCCCCCCCCCC(=O)O', 'Potency', 'inactive');

----------
- test: qHTS assay to identify small molecule antagonists of the estrogen receptor alpha (ER-alpha) signaling pathway - cell viability counter screen (AID 743074);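 note: HEK293 cells carrying ER-alpha-UAS-bla reporter stimulated with 17beta-estradiol; nearly all actives have a fitted effect of over 45% in size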
- recorded_conditions: ERalpha-bla HEK293 viability, CellTiter-Glo luminescence, 18 h; series mostly up to 69.4 µM
Results filed as inconclusive are left out. Active and inactive are the calls of the source. Calls follow the shape of the full dose curve.
Outcomes: active, inactive

INSERT INTO assay_data (compound, class_label) VALUES
  ('O=C1CCCc2c1cc1ccc3cccc4ccc2c1c34', 'inactive'),
  ('CCN(CCC#N)c1ccc(N=Nc2c(Cl)cc([N+](=O)[O-])cc2Cl)cc1', 'inactive'),
  ('CCCCN1CCCC[C@H]1C(=O)Nc1c(C)cccc1C', 'inactive'),
  ('CCCCCCCCCCC=O', 'inactive'),
  ('C/C=C1/C(=O)C[C@H]2[C@@H]3CCC4=CC(=O)CC[C@]4(C)[C@H]3CC[C@]12C', 'inactive'),
  ('CCCCCCOC(=O)c1ccc(O)cc1', 'inactive'),
  ('CCc1oc2ccccc2c1C(=O)c1cc(Br)c(O)c(Br)c1', 'inactive'),
  ('CCCCCCCCNC(C)C(O)c1ccc(SC(C)C)cc1 (stereo not drawn)', 'active'),
  ('CNC(=O)c1ccccc1', 'inactive'),
  ('CCCCCCCCCCCCCCCS(=O)(=O)Oc1ccccc1', 'inactive'),
  ('CC[C@H]1O[C@]2(CC[C@@H]1C)C[C@@H]1C[C@@H](C/C=C(\C)C[C@@H](C)/C=C/C=C3\CO[C@@H]4[C@H](O)C(C)=C[C@@H](C(=O)O1)[C@]34O)O2', 'active'),
  ('CC(=O)OCC(C)OC(C)=O (stereo not drawn)', 'inactive'),
  ('Nc1c(Cl)cc(Cl)cc1Cl', 'inactive');

This collection of values is drawn from PubChem BioAssay (Tox21).
